# System: Sut1 (UniProt P53032)
# Sequence: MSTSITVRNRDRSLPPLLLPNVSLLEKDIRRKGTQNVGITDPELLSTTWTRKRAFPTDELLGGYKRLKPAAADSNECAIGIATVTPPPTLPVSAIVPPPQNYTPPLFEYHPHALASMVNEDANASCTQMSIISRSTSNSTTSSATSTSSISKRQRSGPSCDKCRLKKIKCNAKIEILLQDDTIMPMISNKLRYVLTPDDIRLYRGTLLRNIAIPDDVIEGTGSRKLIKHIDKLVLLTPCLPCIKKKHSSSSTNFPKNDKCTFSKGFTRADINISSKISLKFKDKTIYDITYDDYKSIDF
# Experiment description: PBM E-score (8-mer binding enrichment) (E-score (-0.5 to 0.5)); higher = stronger / more preferred TF binding
# Condition: protein concentration: 200 nM; construct: GST-full length
The full ranking holds about 33,000 sequences; the median of “E-score (-0.5 to 0.5)” is about -0.017, and the highest 2% start at about 0.3. The entries come from a sample that favours the highest values as a whole.
Readout type: PBM E-score

INSERT INTO measurements (monomer_sequence, obs_value) VALUES
  ('CTTAACAC', -0.122),
  ('AACTGTCG', 0.00476),
  ('AATAAATT', 0.237),
  ('AAAGCCCG', 0.208),
  ('AATCCGGT', 0.258),
  ('CTCCCGAA', -0.0868),
  ('CATCCGGA', 0.292),
  ('CTATTGAA', 0.226),
  ('GATCCGGA', 0.324),
  ('TATCCGAA', 0.304),
  ('TATCCGCA', 0.169),
  ('ATTAACAA', 0.199),
  ('AATAAATG', 0.179),
  ('GATCCGGC', 0.0532),
  ('TATCCGGA', 0.39),
  ('CCAAGACC', -0.261),
  ('GAACTTTA', 0.145),
  ('GCTTCCCA', -0.179),
  ('CACAAATA', 0.13),
  ('AGGGGCCC', -0.217),
  ('GATCCGAA', 0.26),
  ('AGTTAAGA', 0.0414);

###

# System: Sut1 (UniProt P53032)
# Sequence: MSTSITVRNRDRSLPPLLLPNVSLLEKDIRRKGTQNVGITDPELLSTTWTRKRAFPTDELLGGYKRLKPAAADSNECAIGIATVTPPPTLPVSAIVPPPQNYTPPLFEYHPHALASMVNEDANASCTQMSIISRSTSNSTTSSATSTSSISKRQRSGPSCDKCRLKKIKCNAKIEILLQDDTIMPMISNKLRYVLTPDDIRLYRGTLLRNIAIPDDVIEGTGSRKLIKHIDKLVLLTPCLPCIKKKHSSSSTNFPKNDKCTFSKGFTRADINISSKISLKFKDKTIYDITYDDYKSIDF
# Experiment description: PBM E-score (8-mer binding enrichment) (E-score (-0.5 to 0.5)); higher = stronger / more preferred TF binding
# Condition: protein concentration: 200 nM; construct: GST-full length
Over roughly 33,000 sequences, “E-score (-0.5 to 0.5)” has its median near -0.017; the highest 2% begin near 0.3. The sample as a whole holds a higher share of the highest values than the screen did.
Label scheme for PBM E-score: lower than 0.2 is f, 0.2 and above is t.

INSERT INTO results (monomer_sequence, category_label) VALUES
  ('GATATTGA', 't'),
  ('AGAGGGGG', 'f'),
  ('CATAAAAA', 'f'),
  ('ATCCCAGC', 'f'),
  ('CCGATAAG', 'f'),
  ('ATTGCGAC', 'f'),
  ('CCCGAAGG', 'f'),
  ('GACACGGA', 't'),
  ('CACACGGA', 'f'),
  ('CAGCATTC', 'f'),
  ('CAAAGTAC', 'f'),
  ('CGATGAGC', 'f'),
  ('TATAAATA', 't'),
  ('TACACGGA', 't'),
  ('CATAACGC', 'f'),
  ('CATATTGA', 'f'),
  ('CACGGTAA', 'f'),
  ('ATCCGGAT', 't'),
  ('TCCCGGAA', 't'),
  ('CCCCAGGC', 'f'),
  ('TTGATAAA', 't'),
  ('ATTAAATA', 't'),
  ('CCGATAAA', 't'),
  ('CTACTATA', 't'),
  ('AAAACGGA', 't'),
  ('TATAAAAA', 't'),
  ('TGGATAAA', 't'),
  ('GAAACGGA', 't'),
  ('GATAAAAA', 't'),
  ('CGGATAAC', 't'),
  ('AACTCGCT', 'f'),
  ('ATGATAAA', 't'),
  ('CATATTAA', 'f'),
  ('ATCCGGCG', 'f'),
  ('CATAAATA', 'f'),
  ('GTAACGCA', 'f'),
  ('TAAAAATA', 't'),
  ('CTCCGGAA', 't'),
  ('CTACTATC', 't'),
  ('GTAACGTA', 'f'),
  ('TAAACGGA', 't'),
  ('GTTAAAGA', 'f'),
  ('AAGCGCAC', 'f'),
  ('ATTTGCTC', 'f'),
  ('CGGATAAA', 't'),
  ('GTCAAGAA', 'f');
